tested on: NCI-H322M lung; assay: NCI-60 one-dose screen, 48 h (100 = growth as untreated, 0 = no growth, -100 = all killed); conditions: 10 µM unless noted
This is part of a sample that, as a whole, favours compounds with a hit. Of some 83,000 tested, about 20% had one in any assay.
endpoint_name: growth (%)
Express the result in % but write the number alone.

Example compounds with recorded growth:
So what does the record say about growth for CCOC(=O)c1c(O)cc(-c2ccccc2)cc1-c1sc(N(C)Cc2ccccc2)nc1Cl ?
106

Could you share which growth value was measured for O=C(CCN1CCCC1)Nc1ccc2c(Nc3ccccc3)c3ccccc3nc2c1 ?
7.35

Query (compound): Cc1ccc2[nH]c(=S)n(-c3ccc(S(=O)(=O)Nc4ccc(Cl)nn4)cc3)c(=O)c2c1 ; field requested: growth
110

// returns reported growth for input Cc1ccc(C2CC(c3cccc(Nc4ccncc4)c3)=NN2c2ccccc2)cc1 (stereo unspecified)
-87.4

Any idea what growth was measured for CN1CCN(c2cnc(C(=O)Nc3cc(F)cc4cccnc34)cn2)CC1 ?
83.9

Value lookup for growth; key = Nc1c(Cl)cc([N+](=O)[O-])cc1Br
103

Which measured growth value corresponds to C=C1C(=O)O[C@H]2[C@H]1CC/C(COC(=O)CCCc1c[nH]c3ccccc13)=C\CC[C@@]1(C)O[C@@H]21 ?
104

Which value of growth has been reported for COc1ccc(/C=C(/c2ccccc2)[N+](=O)[O-])cc1 in the records?
4.07

// growth lookup, key: COc1cc(/C=C2\C(=O)N(Cc3ccc(Cl)cc3)c3ccccc32)cc(OC)c1OC
66.9

Suppose we examine the compound COc1ccc(-c2nc(SC)nc(N3CCOCC3)c2C#N)cc1 ; what growth value has been reported?
102

---
Endpoint output: growth of CC[N+](CC)(CCCC(C)[N+]1(Cc2ccccc2)C(C)=CC=C1C)Cc1ccccc1 (stereo unspecified) . Value?
96.7

Which growth is listed for Clc1ccc(C2CC(c3cccc(Nc4ccncc4)c3)=NN2c2ccccc2)cc1 (stereo unspecified) ?
69.7

Query (compound): Cc1nc2sc(C(=O)Nc3ccccc3)c(N)c2cc1C(=O)c1ccc(C(F)(F)F)cc1 ; field requested: growth
102

Report growth for NC(=S)N/N=C(\c1ccc(Cl)cc1)C1CC1 please.
88

Look up growth for this compound: COc1cc(/C=N/NC(=O)c2ccccc2Nc2cccc(C(F)(F)F)c2)ccc1O
103

Name the reported growth value associated with the compound O=C(CN1CCOCC1)Nc1ccc2ncnc(Nc3ccc(Oc4cccc(C(F)(F)F)c4)c(Cl)c3)c2c1
16.6

// returns reported growth for input CCN(CC)CCCC(Nc1c2ccc(Cl)cc2nc2ccc(OC)cc12)c1ccc(Cl)cc1 (stereo unspecified)
-17.1

GET /values?readout=growth&item= CCN(CC)CCSCCCNc1c(C)cnc2cc(Cl)ccc12
90.8

Param item = Cn1/c(=N/NC(N)=S)ccc2ccccc21 ; retrieve measured growth.
82.4

Query (compound): CCOC(=O)c1c(C)nc2c(c1N)C(=O)C(=O)N2Cc1ccc(C(F)(F)F)cc1 ; field requested: growth
97.3

# input compound: CCNC(=O)c1[nH]cc(-c2ccc(OC)cc2)c1-c1cc(OC)c(OC)c(OC)c1 ; wanted: its growth
51.6

Entry under review: CN1CCN(CCCOc2ccc3ncnc(Nc4ccc(Oc5cccc(C(F)(F)F)c5)c(Cl)c4)c3c2)CC1 . Reported growth?
11.3

Recorded growth of COc1ccccc1C(C[N+](=O)[O-])c1c(-c2ccccc2)[nH]c2cc(C)ccc12 (stereo unspecified) , please.
90.4

Sample CC1NC(=S)NC(=O)/C1=C/c1cc(=O)oc2c1ccc1ccccc12 (stereo unspecified) — what was its growth?
101

Find the recorded growth belonging to COc1cccc(CNCCN2C(=O)c3ccc4c5c(ccc(c35)C2=O)C(=O)N(CCNCc2cccc(OC)c2)C4=O)c1 and report it.
89.9

If you can, please state the reported growth value of Cc1cc(Nc2cccc(C(F)(F)F)c2)n2c(nc3ccccc32)c1C#N .
36.9

Requested read-out: growth. Entry: O=C1Nc2c(ccc(Cl)c2Cl)/C1=C/c1ccc(F)cc1
93.9

Item O=c1nc2n(nc1/C=C/c1ccco1)CC(c1ccc(Cl)cc1)=NN2 has what recorded growth?
84.2

I would be grateful if you could share the reported growth for CC(=O)N1N=C(c2cccc(Nc3ccncc3)c2)CC1c1ccc2c(c1)OCO2 (stereo unspecified) .
105

Which value of growth has been reported for C=Cc1cc[n+](CCCCCCCCCCCC)cc1 in the records?
114

# input compound: O=c1[nH]nc(-c2ccc(Br)cc2)cc1Cc1ccc(O)cc1 ; wanted: its growth
126

---

test system: NCI-H23 lung; experiment: NCI-60 one-dose screen, 48 h (100 = growth as untreated, 0 = no growth, -100 = all killed); settings: 10 µM unless noted
The panel holds about 83,000 compounds, 20% with a hit somewhere; the sample as a whole holds those more often. Active and inactive are the calls of the source. The calls were made as follows: active = growth percent below 10; inactive = the rest.
In this section we review reported growth values for a set of compounds.

Query: growth; subject: COc1cccc(CNCCN2C(=O)c3ccc4c5c(ccc(c35)C2=O)C(=O)N(CCNCc2cccc(OC)c2)C4=O)c1
87.2% (inactive)

Given the entry C=C(C)[C@@H]1CC[C@]2(CO)CC[C@]3(C)[C@H](CC[C@@H]4[C@@]5(C)CCCNC(C)(C)[C@@H]5CC[C@]43C)[C@@H]12 , report its measured growth.
62.6% (inactive)

Returns the measured growth for the input compound. Input: CC(=O)c1c(C)[nH]c(-c2nc3ccc(N4CCN(C)CC4)cc3[nH]2)c1-c1ccccc1
53% (inactive)

Can you look up the measured growth of CC(=O)c1c[nH]c2ccc(-c3ccnc(Nc4ccc(NC(=O)c5cccc(F)c5)c(CN5CCOCC5)c4)n3)cc12 for me?
-13.2% (active)

growth for Cn1ncc2c(Nc3ccccc3Cl)nc(Cl)nc21 ?
100% (inactive)

Continuing:
So what's the measured growth for this one? COc1ccccc1C(C[N+](=O)[O-])c1c(-c2ccccc2)[nH]c2cc(C)ccc12 (stereo not drawn)
68.4% (inactive)

Request the reported growth associated with CCOC(=O)Oc1c(OC)cc(C(=O)O[C@@H]2C[C@@H]3CN4CCc5c([nH]c6cc(OC)ccc56)[C@H]4C[C@@H]3[C@H](C(=O)OC)[C@H]2OC)cc1OC
74.9% (inactive)

Param item = CN1C(=O)N(C)[C@H]2NC(NN)=N[C@H]21 ; retrieve measured growth.
103% (inactive)

---

test system: TK-10 renal; experiment: NCI-60 one-dose screen, 48 h; conditions: 10 µM unless noted
Compounds without any hit were thinned out: in the full panel of roughly 83,000, 20% have a hit. Active and inactive are the calls of the source. How the source made its calls: active means growth percent below 10; inactive means the rest.
Log the outcome using a class from class 1 (active), class 0 (inactive)

Could you check what this test reported for COc1cc(NCCN(CC(C)C)C2CCCC2)c2ncccc2c1 ?
class 0

Please share the test call associated with CC(=O)OCC(=O)C1(O)C(C)CC2C3C=C(C)C4=Cc5c(cnn5-c5ccccc5)CC4(C)C3C(O)CC21C (stereo unspecified) .
class 0

Lab log entry: CC(O)(CO)c1ccccc1 (stereo unspecified) — outcome as called in the assay?
class 0

Give the logged outcome of this assay for the following compound: Cc1ccc(C2CC(c3cccc(Nc4ccncc4)c3)=NN2c2cc(Cl)cc(Cl)c2)cc1 (stereo unspecified)
class 0

Test call, this compound: COc1ccc2c(c1)c(CC(=O)NCCOCCOCC(=O)Nc1ccc(OC)c(C(N)=O)c1O)c(C)n2C(=O)c1ccc(Cl)cc1
class 0

Continuing:
Recorded test call requested for CSc1nnc2c(=O)n(C)c(=O)n(C)c2n1
class 0

Outcome logged for CCOC(=O)c1cnc2c(cnn2CC)c1NN=C(C)C in this assay:
class 0

// param item: CC(C)(C)CC(C)(C)Nc1c(-c2ccc(C(F)(F)F)cc2)nc2cnccn12 ; yields the recorded call
class 0

Dear all, I need the recorded test outcome for CCCOc1nc(SCCC)nc2c1cnn2-c1ccccc1 , thank you.
class 0

Query: recorded result category for CCOC(=O)C1=C(C)NC(C)=C(C(=O)OCC)C1c1cc(Br)c(O)c(OC)c1 in this test
class 0

Record request — test call for COc1ccc(/C=C/c2n[nH]c3ccc(N4CCOC4=O)cc23)cc1
class 1

---

tested on: MDA-MB-435 melanoma; test: NCI-60 one-dose screen, 48 h (100 = growth as untreated, 0 = no growth, -100 = all killed); conditions: 10 µM unless noted
Compounds without any hit were thinned out: in the full panel of roughly 83,000, 20% have a hit.
endpoint_name: growth (%)
State just the number; it will be interpreted in %.

// known answers, use as guide
growth for O=C(Nc1ccc2cc3ccc(NC(=O)NC4CCCCC4)cc3nc2c1)NC1CCCCC1 ?
95.3

I am curious: what growth value has been reported for COc1ccc(C(=O)c2cc(C)c(OC)c(C)c2)c(OC)c1O ?
-40.3

Next:
// lookup growth for O=C1NC(=O)C(=Cc2cn(Cc3ccccn3)c3ccccc23)C(=O)N1
101

Suppose we examine the compound COc1ccc(/C=N/NC(=O)c2cccc3cc[nH]c23)cc1O ; what growth value has been reported?
-21.4

Consider the compound shown here: COc1ccc(-c2nc(N/N=C/c3cccc(Br)c3)nc(N3CCOCC3)c2C#N)cc1 What is its recorded growth?
87.9
